Tested on: Streptococcus pneumoniae ATCC 49619
Assay Procedure: MIC determination
Assay type: cell-based
Experimental Conditions: Streptococcus pneumoniae, ATCC49619; S. pneumoniae 49619; 18 hours at 37° C., 5% CO2; read-out: Minimum inhibitory concentrations (MIC)
Criterion: MIC strictly under 0.5 µg/mL. Met: 1.0. Not met: 0.0.

{"Molecule": "COc1ccc(C[C@H](N)C(=O)N[C@H]2[C@@H](O)[C@H](n3cnc4c(N(C)C)ncnc43)O[C@@H]2CO)cc1 [Puromycin]", "Assayed Target": "Streptococcus pneumoniae ATCC 49619", "Class Label": 0.0}
{"Molecule": "NC[C@H]1O[C@H](O[C@H]2[C@H](O)[C@@H](O[C@H]3O[C@H](CO)[C@@H](O)[C@H](N)[C@H]3O)[C@H](N)C[C@@H]2N)[C@H](O)[C@@H](O)[C@@H]1O [Kanamycin]", "Assayed Target": "Streptococcus pneumoniae ATCC 49619", "Class Label": 0.0}
{"Molecule": "COc1cc(Cc2cnc(N)nc2N)c2c(c1OC)OC(C1CC1)C=C2 (racemic) [Iclaprim]", "Assayed Target": "Streptococcus pneumoniae ATCC 49619", "Class Label": 1.0}
{"Molecule": "CCC[C@@H]1C[C@@H](C(=O)N[C@@H]([C@H]2O[C@H](SC)[C@H](O)[C@@H](O)[C@H]2O)[C@H](C)Cl)N(C)C1 [Clindamycin]", "Assayed Target": "Streptococcus pneumoniae ATCC 49619", "Class Label": 1.0}
{"Molecule": "NC[C@H]1O[C@H](O[C@H]2[C@H](O)[C@@H](O[C@H]3O[C@H](CO)[C@@H](O)[C@H](N)[C@H]3O)[C@H](N)C[C@@H]2N)[C@H](N)C[C@@H]1O [Tobramycin]", "Assayed Target": "Streptococcus pneumoniae ATCC 49619", "Class Label": 0.0}
{"Molecule": "CO[C@H]1/C=C/O[C@@]2(C)Oc3c(C)c(O)c4c(O)c(c(/C=N/N5CCN(C)CC5)c(O)c4c3C2=O)NC(=O)/C(C)=C\\C=C\\[C@H](C)[C@H](O)[C@@H](C)[C@@H](O)[C@@H](C)[C@H](OC(C)=O)[C@@H]1C [Rifampicin]", "Assayed Target": "Streptococcus pneumoniae ATCC 49619", "Class Label": 1.0}
{"Molecule": "CN(C)[C@@H]1C(O)=C(C(N)=O)C(=O)[C@@]2(O)C(O)=C3C(=O)c4c(O)cccc4[C@@](C)(O)[C@H]3C[C@@H]12 [Tetracycline, Tetracyclin]", "Assayed Target": "Streptococcus pneumoniae ATCC 49619", "Class Label": 1.0}
{"Molecule": "CCN1CCN(C(=O)N[C@@H](C(=O)N[C@@H]2C(=O)N3[C@@H]2SC(C)(C)[C@@H]3C(=O)O)c2ccccc2)C(=O)C1=O [Piperacillin]", "Assayed Target": "Streptococcus pneumoniae ATCC 49619", "Class Label": 0.0}
{"Molecule": "Cc1cc(NS(=O)(=O)c2ccc(N)cc2)no1 [Sulfamethoxazole, N1-(5-methyl-3-isoxazolyl)sulfanilamide]", "Assayed Target": "Streptococcus pneumoniae ATCC 49619", "Class Label": 0.0}

###

Tested on: Klebsiella pneumoniae ATCC 33495
Assay Procedure: MIC determination
Assay type: cell-based
Experimental Conditions: Klebsiella pneumoniae, ATCC33495; K. pneumonia 33495; 18 hours at 37° C.; read-out: Minimum inhibitory concentrations (MIC)
Procedure: Minimum inhibitory concentration (MIC) determination. In order to choose the appropriate concentrations to be tested in the checkerboard experiments, minimum inhibitory concentrations (MICs) were determined first. […] Table 6) in microtiter plates. […] The MIC was determined as the lowest concentration of an individual drug that lead to no visible growth.
Positions of bridges follow the written chain, without caps; N, C: chain ends. Non-standard residues stand in square brackets, D forms with d. Residues, ends and D or L forms follow the SMILES beside them. *: point of attachment. Ileψ(thiazoline)Cys = CC[C@H](C)[C@H](N)C1=N[C@H](C(=O)*)CS1; dOrn = NCCC[C@@H](N)C(=O)O
Recorded measurements of MIC, one per entry

{"Compound": "CC[C@H](C)[C@H](N)C1=N[C@H](C(=O)N[C@@H](CC(C)C)C(=O)N[C@H](CCC(=O)O)C(=O)N[C@H](C(=O)N[C@H]2CCCCNC(=O)[C@H](CC(N)=O)NC(=O)[C@@H](CC(=O)O)NC(=O)[C@H](Cc3cnc[nH]3)NC(=O)[C@@H](Cc3ccccc3)NC(=O)[C@H]([C@@H](C)CC)NC(=O)[C@@H](CCCN)NC2=O)[C@@H](C)CC)CS1 [Bacitracin] ({Ileψ(thiazoline)Cys}-L[dE]IK[dOrn]I[dF]H[dD]N; lactam 4-C)", "Assayed Target": "Klebsiella pneumoniae ATCC 33495", "MIC": "> 128 µg/mL"}
{"Compound": "CC[C@H]1OC(=O)[C@H](C)[C@@H](O[C@H]2C[C@@](C)(OC)[C@@H](O)[C@H](C)O2)[C@H](C)[C@@H](O[C@@H]2O[C@H](C)C[C@H](N(C)C)[C@H]2O)[C@](C)(O)C[C@@H](C)C(=O)[C@H](C)[C@@H](O)[C@]1(C)O [Erythromycin]", "Assayed Target": "Klebsiella pneumoniae ATCC 33495", "MIC": "128 µg/mL"}
{"Compound": "COc1cc(Cc2cnc(N)nc2N)cc(OC)c1OC [Trimethoprim]", "Assayed Target": "Klebsiella pneumoniae ATCC 33495", "MIC": "8 µg/mL"}
{"Compound": "CO[C@@H]1[C@@H](OC(N)=O)[C@@H](O)[C@H](Oc2ccc3c(O)c(NC(=O)c4ccc(O)c(CC=C(C)C)c4)c(=O)oc3c2C)OC1(C)C [Novobiocin]", "Assayed Target": "Klebsiella pneumoniae ATCC 33495", "MIC": "128 µg/mL"}
{"Compound": "CC[C@H]1OC(=O)[C@H](C)[C@@H](O[C@H]2C[C@@](C)(OC)[C@@H](O)[C@H](C)O2)[C@H](C)[C@@H](O[C@@H]2O[C@H](C)C[C@H](N(C)C)[C@H]2O)[C@](C)(O)C[C@@H](C)/C(=N\\OCOCCOC)[C@H](C)[C@@H](O)[C@]1(C)O [Roxithromycin]", "Assayed Target": "Klebsiella pneumoniae ATCC 33495", "MIC": "> 128 µg/mL"}
{"Compound": "CCC[C@@H]1C[C@@H](C(=O)N[C@@H]([C@H]2O[C@H](SC)[C@H](O)[C@@H](O)[C@H]2O)[C@H](C)Cl)N(C)C1 [Clindamycin]", "Assayed Target": "Klebsiella pneumoniae ATCC 33495", "MIC": "> 128 µg/mL"}
